Recorded TGI, one value per entry.
# Tested on: NCI-H23 lung
# PROTOCOL_DETAILS: NCI tumour cell line growth inhibition, 48 h
MEASURED_ATTRIBUTE: TGI (µM)

{"SMILES_ENTRY": "COc1ccc(N=Nc2ccc3oc(=O)c(C(=O)Nc4ccccc4C)cc3c2)cc1", "EXPERIMENTAL_TARGET": "NCI-H23 lung", "QUALIFYING_SIGN": ">", "OBSERVED_MEASUREMENT": 10}
{"SMILES_ENTRY": "C=C1C(=O)O[C@H]2[C@H]1CC/C(COC(=O)/C=C\\C(=O)NCc1ccc(Cn3c(=O)sn(CCI)c3=O)cc1)=C\\CC[C@@]1(C)O[C@@H]21", "EXPERIMENTAL_TARGET": "NCI-H23 lung", "QUALIFYING_SIGN": "=", "OBSERVED_MEASUREMENT": 11.8}
{"SMILES_ENTRY": "O=C1Cc2cc(CCn3cncn3)c(Cl)cc2N1", "EXPERIMENTAL_TARGET": "NCI-H23 lung", "QUALIFYING_SIGN": ">", "OBSERVED_MEASUREMENT": 100}
{"SMILES_ENTRY": "N#Cc1ccc(Oc2ccccc2)cc1C#N", "EXPERIMENTAL_TARGET": "NCI-H23 lung", "QUALIFYING_SIGN": ">", "OBSERVED_MEASUREMENT": 100}
{"SMILES_ENTRY": "CC(=O)Oc1c2ccsc2c(OC(C)=O)c2ccsc12", "EXPERIMENTAL_TARGET": "NCI-H23 lung", "QUALIFYING_SIGN": "=", "OBSERVED_MEASUREMENT": 1.05}
{"SMILES_ENTRY": "COc1ccc2c(O)c(/C=C3\\N=Nc4ncccc43)oc2c1C[C@@H]1CCNC[C@H]1F", "EXPERIMENTAL_TARGET": "NCI-H23 lung", "QUALIFYING_SIGN": "=", "OBSERVED_MEASUREMENT": 3.51}
{"SMILES_ENTRY": "COC(=O)Cc1c([C@H]2[C@H](CC(=O)OC)c3ccccc3N2S(=O)(=O)c2ccc(C)cc2)[nH]c2ccccc12", "EXPERIMENTAL_TARGET": "NCI-H23 lung", "QUALIFYING_SIGN": ">", "OBSERVED_MEASUREMENT": 100}
{"SMILES_ENTRY": "O=C(CCC(=O)Nc1cccc(C(F)(F)F)c1)CC(=O)c1ccc2ccccc2c1", "EXPERIMENTAL_TARGET": "NCI-H23 lung", "QUALIFYING_SIGN": ">", "OBSERVED_MEASUREMENT": 100}
{"SMILES_ENTRY": "C#C[C@@]1(O)[C@@H](CO)O[C@@H](n2cc(C(F)(F)F)c3c(N)ncnc32)[C@@H]1O", "EXPERIMENTAL_TARGET": "NCI-H23 lung", "QUALIFYING_SIGN": "=", "OBSERVED_MEASUREMENT": 8.19}

* * *

# Tested on: SNB-19 CNS
# PROTOCOL_DETAILS: NCI tumour cell line growth inhibition, 48 h; in the data active = GI50 below about 0.43 µM; inactive = the rest
Outcomes: y for active, n for inactive

{"COMPOUND": "CCCCCCCCCCCCN=C(N)c1ccc(N2CCN(c3ccc(C(N)=NCCCCCCCCCCCC)cc3)CC2)cc1", "CAT": "n"}
{"COMPOUND": "CCN(CC)c1ccc(-c2cc(-c3cc(OC)c(OC)c(OC)c3)nc(N3CCC(O)CC3)c2C#N)cc1", "CAT": "n"}
{"COMPOUND": "CCOc1ccc(C(C[N+](=O)[O-])Sc2ccccc2N)cc1 (centres undefined)", "CAT": "n"}
{"COMPOUND": "COc1cc2c3c(n(CCCNCCCNCCN)c(=O)c2cc1OC)-c1cc2c(cc1C3=O)OCO2", "CAT": "n"}
{"COMPOUND": "COc1ccc(C2C(C#N)=C(N)Oc3c2sc2c(Br)cccc32)cc1 (centres undefined)", "CAT": "n"}
{"COMPOUND": "CCN(CC)CCN1c2nc3ccccc3cc2Sc2cc3ccccc3nc21", "CAT": "n"}
{"COMPOUND": "Cc1ccc(Cl)c(NS(=O)(=O)c2ccc(-c3cnc(C4CC4)o3)cc2)c1", "CAT": "y"}
{"COMPOUND": "COc1ccc(S(=O)(=O)Nc2c(/C=C\\c3cc(OC)c(OC)c(OC)c3)ccc(OC)c2O)cc1", "CAT": "y"}
{"COMPOUND": "O=C1Nc2ccccc2/C1=C\\c1nc(-c2ccccc2F)n2ccccc12", "CAT": "n"}
{"COMPOUND": "Nc1ncc(-c2ccc3ncnc(N4CCc5ccc(Cl)cc54)c3c2)cc1C(F)(F)F", "CAT": "n"}
{"COMPOUND": "Cn1cc(C2=C(c3cn(CCCN)c4ccccc34)C(=O)NC2=O)c2ccccc21", "CAT": "n"}
{"COMPOUND": "c1ccc(Oc2ccc(Nc3ncc(-c4ccccc4)o3)cc2)cc1", "CAT": "n"}
{"COMPOUND": "O=C(Nc1cc(Cl)cc(Cl)c1)c1cccc(NC2=C(Cl)C(=O)N(Cc3ccccc3)C2=O)c1", "CAT": "n"}
{"COMPOUND": "Oc1[nH]c2ccccc2c1/C=c1/ccc2c(c1)N=C(c1ccc(C(F)(F)F)cc1)N=2", "CAT": "n"}

The measurements presented in this section are drawn from PubChem BioAssay (NCI).
